Tested on: Enterobacter cloacae
experiment.summary: In vitro antibacterial activity was tested for Enterobacter cloacae HA2646
Format: functional
measurement.label: MIC (µg/mL)

compound: COc1c(N2CC(C)NC(C)C2)c(F)c(N)c2c(=O)c(C(=O)O)cn(C3CC3)c12 (stereo not given)
system.name: Enterobacter cloacae
numeric.readout: 0.2
--
compound: CCOc1c(N2CCC(C)(CN)C2)c(F)cc2c(=O)c(C(=O)O)cn(C3CC3)c12 (stereo not given)
system.name: Enterobacter cloacae
numeric.readout: 0.2
--
compound: NC1CCN(c2c(F)cc3c(=O)c(C(=O)O)cn(C4CC4)c3c2Cl)C1 (stereo not given)
system.name: Enterobacter cloacae
numeric.readout: 0.025
--
compound: CCOc1c(N2CCCC(N)C2)c(F)cc2c(=O)c(C(=O)O)cn(C3CC3)c12 (stereo not given)
system.name: Enterobacter cloacae
numeric.readout: 0.4
--
compound: COc1c(N2CC[C@H](N)C2)c(F)cc2c(=O)c(C(=O)O)cn(C3CC3)c12
system.name: Enterobacter cloacae
numeric.readout: 0.025
--
compound: COc1c(N2CC[C@@H](N)C2)c(F)cc2c(=O)c(C(=O)O)cn(C3CC3)c12
system.name: Enterobacter cloacae
numeric.readout: 0.025
--
compound: NCC1CCCN(c2c(F)cc3c(=O)c(C(=O)O)cn(C4CC4)c3c2Cl)C1 (stereo not given)
system.name: Enterobacter cloacae
numeric.readout: 0.2
--
compound: COc1c(N2CCCC(CN)C2)c(F)c(N)c2c(=O)c(C(=O)O)cn(C3CC3)c12 (stereo not given)
system.name: Enterobacter cloacae
numeric.readout: 0.2
--
compound: COc1c(N2CCC(C)(CN)C2)c(F)cc2c(=O)c(C(=O)O)cn(C3CC3)c12 (stereo not given)
system.name: Enterobacter cloacae
numeric.readout: 0.1
--
compound: Nc1c(F)c(N2CCC(N)C2)c(F)c2c1c(=O)c(C(=O)O)cn2C1CC1 (stereo not given)
system.name: Enterobacter cloacae
numeric.readout: 0.006
--
compound: COc1c(N2CCC(N)CC2)c(F)c(N)c2c(=O)c(C(=O)O)cn(C3CC3)c12
system.name: Enterobacter cloacae
numeric.readout: 0.1
--
compound: CCOc1c(N2CCCC(CN)C2)c(F)cc2c(=O)c(C(=O)O)cn(C3CC3)c12 (stereo not given)
system.name: Enterobacter cloacae
numeric.readout: 0.4
--
compound: COc1c(N2CCCC(N)C2)c(F)cc2c(=O)c(C(=O)O)cn(C3CC3)c12 (stereo not given)
system.name: Enterobacter cloacae
numeric.readout: 0.1
--
compound: CCOc1c(N2CCC(N)C2)c(F)cc2c(=O)c(C(=O)O)cn(C3CC3)c12 (stereo not given)
system.name: Enterobacter cloacae
numeric.readout: 0.1
--
compound: CCNCC1CCN(c2c(F)cc3c(=O)c(C(=O)O)cn(C4CC4)c3c2OC)C1 (stereo not given)
system.name: Enterobacter cloacae
numeric.readout: 0.1
--
compound: COc1c(N2CC(C)NC(C)C2)c(F)cc2c(=O)c(C(=O)O)cn(C3CC3)c12 (stereo not given)
system.name: Enterobacter cloacae
numeric.readout: 0.1
--
compound: NC1CCN(c2c(F)cc3c(=O)c(C(=O)O)cn(C4CC4)c3c2F)C1 (stereo not given)
system.name: Enterobacter cloacae
numeric.readout: 0.025
--
compound: COc1c(N2CC[C@H](N)C2)c(F)c(N)c2c(=O)c(C(=O)O)cn(C3CC3)c12
system.name: Enterobacter cloacae
numeric.readout: 0.05
--
compound: COc1c(N2CCCC(CN)C2)c(F)cc2c(=O)c(C(=O)O)cn(C3CC3)c12 (stereo not given)
system.name: Enterobacter cloacae
numeric.readout: 0.2
--
compound: COc1c(N2CCC(N)C2)c(F)c(N)c2c(=O)c(C(=O)O)cn(C3CC3)c12 (stereo not given)
system.name: Enterobacter cloacae
numeric.readout: 0.05

Where do the numbers come from? From ChEMBL document CHEMBL1128719.
